All figures here come from the kinase profiling compilation of Christmann-Franck et al. (2016).

measuredTarget: NEK11 (human) (UniProt Q8NG66)
Sequence (Q8NG66 whole entry, looked up): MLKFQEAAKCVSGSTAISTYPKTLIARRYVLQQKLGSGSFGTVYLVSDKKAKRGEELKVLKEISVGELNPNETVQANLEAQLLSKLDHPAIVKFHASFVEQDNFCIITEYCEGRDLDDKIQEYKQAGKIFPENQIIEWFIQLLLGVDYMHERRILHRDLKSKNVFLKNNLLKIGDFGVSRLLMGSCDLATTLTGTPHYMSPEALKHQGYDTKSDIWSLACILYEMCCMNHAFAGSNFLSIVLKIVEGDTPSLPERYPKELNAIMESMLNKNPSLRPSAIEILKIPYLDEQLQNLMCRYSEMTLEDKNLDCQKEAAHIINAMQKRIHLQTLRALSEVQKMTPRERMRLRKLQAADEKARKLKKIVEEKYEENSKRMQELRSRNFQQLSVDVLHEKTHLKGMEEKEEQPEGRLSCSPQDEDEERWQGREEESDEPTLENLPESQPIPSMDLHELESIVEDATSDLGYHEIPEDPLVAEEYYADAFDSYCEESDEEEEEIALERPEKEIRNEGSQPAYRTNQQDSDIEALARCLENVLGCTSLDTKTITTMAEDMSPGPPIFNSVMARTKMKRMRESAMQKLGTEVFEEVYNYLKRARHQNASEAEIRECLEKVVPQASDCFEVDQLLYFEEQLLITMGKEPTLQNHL
testDescription: radiometric filter-binding kinase assay, Kinase HotSpot
measurementParameters: compound 0.5 µM; ATP 10 µM
# residual activity listing for each entry below
readoutLabel: residual activity

compound	result
CC#CC(=O)Nc1cc2c(Nc3ccc(F)c(Cl)c3)ncnc2cn1	86.6%
CO[C@H]1CC2CC[C@@H](C)[C@@](O)(O2)C(=O)C(=O)N2CCCC[C@H]2C(=O)OC([C@H](C)C[C@@H]2CC[C@@H](O)[C@H](OC)C2)CC(=O)[C@H](C)/C=C(\C)[C@@H](O)[C@@H](OC)C(=O)[C@H](C)C[C@H](C)/C=C/C=C/C=C/1C (stereo not given in full)	73.6%
O=c1cc(N2CCOCC2)oc2c1ccc1ccccc12	99.1%
CCC(=O)Nc1ccc2ncnc(Nc3cccc(Br)c3)c2c1	103%
O=C1NC(=O)/C(=C/c2ccc3c(c2)OC(F)(F)O3)S1	111%
Oc1cccc(-c2nc(N3CCOCC3)c3oc4ncccc4c3n2)c1	109%
Cc1ccc(Nc2nccc(N(C)c3ccc4c(C)n(C)nc4c3)n2)cc1S(N)(=O)=O	94.8%
COc1ccc2c(c[n+](C)c3c4cc5c(cc4ccc23)OCO5)c1OC	106%
CCN(CC)CCNC(=O)c1c(C)[nH]c(/C=C2\C(=O)Nc3ccc(F)cc32)c1C	106%
COc1cc2ncnc(Nc3cccc(Cl)c3)c2cc1OC	96.9%
Cc1ccc(NC2=CC(=O)c3sc(C)nc3C2=O)cc1	98.3%
CCCC(=O)Oc1ccc2[nH]c(C(=O)c3cc4ccccc4[nH]3)cc2c1	101%
O=C1NC(=O)c2c1c1c3ccccc3n3c1c1c2c2ccccc2n1C1CCC3O1	60.6%
Nc1ncnc2c1c(-c1ccc(Oc3ccccc3)cc1)cn2C1CCCC1	87.1%
Cc1ccc(S(=O)(=O)/C=C/C#N)cc1	95.8%
c1ccc(-c2n[nH]c3c2oc2ccccc23)cc1	103%
CC(C)N(CCC(=O)c1ccc2ccccc2c1)Cc1ccccc1	105%
N#CC(C#N)=C(N)/C(C#N)=C/c1ccc(O)cc1	97.2%
CCN(CC)C(=O)c1ccc(Nc2nc(OCC3CCCCC3)c3nc[nH]c3n2)cc1	132%
Nc1cccc(-c2cc3c(Oc4cccc(O)c4)ncnc3[nH]2)c1	89.6%

----------
measuredTarget: CLK1 (human)
testDescription: radiometric filter-binding kinase assay, Kinase HotSpot
measurementParameters: compound 0.5 µM; ATP 10 µM
Reported values of residual activity for individual entries
readoutLabel: residual activity (%)

> print(dat)
                                     smiles  unitstring  numericresult
1           CNc1cc2c(Nc3cccc(Br)c3)ncnc2cn1           %            106
2  CCOC(=O)c1c(C)[nH]c(/C=C2\C(=O)Nc3ccccc32)c1C           %           98.2
3              Cc1ccc(S(=O)(=O)/C=C/C#N)cc1           %            107

----------
Overview of reported residual activity across a group of compounds:
measuredTarget: PAK7 (human) (UniProt Q9P286)
Sequence (Q9P286 whole entry, looked up): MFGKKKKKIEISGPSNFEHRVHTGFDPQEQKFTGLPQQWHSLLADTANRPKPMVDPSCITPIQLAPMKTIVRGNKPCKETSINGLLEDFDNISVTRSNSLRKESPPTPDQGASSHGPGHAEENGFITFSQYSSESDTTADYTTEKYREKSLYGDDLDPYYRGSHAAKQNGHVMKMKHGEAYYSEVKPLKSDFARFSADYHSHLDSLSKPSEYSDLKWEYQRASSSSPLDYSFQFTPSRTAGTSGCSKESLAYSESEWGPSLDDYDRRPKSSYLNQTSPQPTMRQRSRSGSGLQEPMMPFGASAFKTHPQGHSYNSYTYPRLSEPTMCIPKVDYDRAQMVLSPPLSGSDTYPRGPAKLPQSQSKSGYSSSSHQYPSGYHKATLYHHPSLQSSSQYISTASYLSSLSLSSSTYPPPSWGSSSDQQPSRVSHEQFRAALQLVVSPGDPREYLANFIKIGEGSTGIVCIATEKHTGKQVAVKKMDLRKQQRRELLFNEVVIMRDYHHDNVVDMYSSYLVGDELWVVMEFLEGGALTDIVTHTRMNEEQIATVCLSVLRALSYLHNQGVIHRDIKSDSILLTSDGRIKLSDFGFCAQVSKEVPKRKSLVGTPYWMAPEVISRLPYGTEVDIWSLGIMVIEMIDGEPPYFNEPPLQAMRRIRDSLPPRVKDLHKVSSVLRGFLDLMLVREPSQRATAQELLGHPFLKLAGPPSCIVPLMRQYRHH
testDescription: radiometric filter-binding kinase assay, Kinase HotSpot
measurementParameters: compound 0.5 µM; ATP 10 µM
readoutLabel: residual activity (%)

> print(dat)
                                     smiles                 measuredtarget  unitstring  numericresult
1  Nc1ncnc2c1c(-c1ccc(Oc3ccccc3)cc1)cn2C1CCCC1  PAK7 (human) (UniProt Q9P286)           %            102
2  Nc1cccc(-c2cc3c(Oc4cccc(O)c4)ncnc3[nH]2)c1  PAK7 (human) (UniProt Q9P286)           %           86.9
3  Cc1ccc(Nc2nccc(N(C)c3ccc4c(C)n(C)nc4c3)n2)cc1S(N)(=O)=O  PAK7 (human) (UniProt Q9P286)           %           95.4
4          O=S(=O)(c1cccc2cnccc12)N1CCCNCC1  PAK7 (human) (UniProt Q9P286)           %           73.1
